In this section we review reported AUC(0-t) values for a set of compounds.
METHOD_DESCRIPTION: AUCt in ICR mouse at 20 mg/kg, po measured after 0.083 to 48 hrs by LC-MS/MS analysis
Assay type: ADME, organism-based
Set-up: route oral, dose 20 mg/kg, time 0.083-48 hrs
EXPERIMENTAL_PARAMETERS: in vivo
Express your answer in ng·h/mL, writing the number without its unit.

The examples below pair each entry with its known result.
CNc1nc(Nc2cnc(C#N)c(O[C@@H]3CCCNC3)c2)ncc1-c1cnn(C(F)(F)F)c1 | 126
CNCCCNc1nc(Nc2ccc(C#N)nc2)ncc1C(F)(F)F | 6600
CS(=O)(=O)CCNCCCNc1nc(Nc2ccc(C#N)nc2)ncc1C(F)(F)F | 2520

q: Fill in AUC(0-t) for record CNc1nc(Nc2cnc(C#N)c(O[C@@H]3CCCNC3)c2)ncc1C(F)(F)F
a: 166

q: State its AUC(0-t): CNc1nc(Nc2cnc(C#N)c(N[C@@H]3CCNC3)c2)ncc1C(F)(F)F
a: 1120

q: Give the reported AUC(0-t) for this compound. N#Cc1ccc(Nc2ncc(C(F)(F)F)c(NCCCN)n2)cn1
a: 3300

q: Read the entry CC(C)(N)CCNc1nc(Nc2ccc(C#N)nc2)ncc1C(F)(F)F and write its reported AUC(0-t).
a: 17700

====

METHOD_DESCRIPTION: Cmax in ICR mouse at 20 mg/kg, po measured after 0.083 to 48 hrs by LC-MS/MS analysis
Type: ADME, organism-based
Parameters: route oral, time upper 48 hrs, time lower 0.083 hrs, dose 20 mg/kg
EXPERIMENTAL_PARAMETERS: in vivo
METRIC: Cmax
Please provide the amount together with its unit, number first.

Some compounds with known Cmax results, for comparison:
CS(=O)(=O)CCNCCCNc1nc(Nc2ccc(C#N)nc2)ncc1C(F)(F)F | 1690 ng/mL
CC(C)(N)CCNc1nc(Nc2ccc(C#N)nc2)ncc1C(F)(F)F | 1450 ng/mL
N#Cc1ccc(Nc2ncc(C(F)(F)F)c(NCCCN)n2)cn1 | 2860 ng/mL
CNc1nc(Nc2cnc(C#N)c(N[C@@H]3CCNC3)c2)ncc1C(F)(F)F | 1330 ng/mL
CNCCCNc1nc(Nc2ccc(C#N)nc2)ncc1C(F)(F)F | 1530 ng/mL

q: Look up and state reported Cmax for CNc1nc(Nc2cnc(C#N)c(O[C@@H]3CCCNC3)c2)ncc1C(F)(F)F
a: 127 ng/mL

q: # return recorded Cmax for entry CNc1nc(Nc2cnc(C#N)c(O[C@@H]3CCCNC3)c2)ncc1-c1cnn(C(F)(F)F)c1
a: 93 ng/mL

====

METHOD_DESCRIPTION: MRT (0 to infinity) in ICR mouse at 20 mg/kg, po measured after 0.083 to 48 hrs by LC-MS/MS analysis
Format: ADME, organism-based
EXPERIMENTAL_PARAMETERS: in vivo, time 0.083-48 hrs
Criterion: MRT inf strictly less than 2 h. Met: rule met. Not met: rule not met.

CC(C)(N)CCNc1nc(Nc2ccc(C#N)nc2)ncc1C(F)(F)F | rule not met
CNc1nc(Nc2cnc(C#N)c(N[C@@H]3CCNC3)c2)ncc1C(F)(F)F | rule met
CNc1nc(Nc2cnc(C#N)c(O[C@@H]3CCCNC3)c2)ncc1C(F)(F)F | rule met
CS(=O)(=O)CCNCCCNc1nc(Nc2ccc(C#N)nc2)ncc1C(F)(F)F | rule not met

q: hey, is MRT inf for N#Cc1ccc(Nc2ncc(C(F)(F)F)c(NCCCN)n2)cn1 lower than 2 h or not?
a: rule met

q: Given CNCCCNc1nc(Nc2ccc(C#N)nc2)ncc1C(F)(F)F , is recorded MRT inf strictly lower than 2 h?
a: rule not met

q: Is 2 h strictly greater than the compound's reported MRT inf? compound: CNc1nc(Nc2cnc(C#N)c(O[C@@H]3CCCNC3)c2)ncc1-c1cnn(C(F)(F)F)c1
a: rule not met

====

TARGET_SYSTEM: Serine/threonine-protein kinase Chk1 (Homo sapiens, UniProt O14757)
Sequence (O14757 whole entry): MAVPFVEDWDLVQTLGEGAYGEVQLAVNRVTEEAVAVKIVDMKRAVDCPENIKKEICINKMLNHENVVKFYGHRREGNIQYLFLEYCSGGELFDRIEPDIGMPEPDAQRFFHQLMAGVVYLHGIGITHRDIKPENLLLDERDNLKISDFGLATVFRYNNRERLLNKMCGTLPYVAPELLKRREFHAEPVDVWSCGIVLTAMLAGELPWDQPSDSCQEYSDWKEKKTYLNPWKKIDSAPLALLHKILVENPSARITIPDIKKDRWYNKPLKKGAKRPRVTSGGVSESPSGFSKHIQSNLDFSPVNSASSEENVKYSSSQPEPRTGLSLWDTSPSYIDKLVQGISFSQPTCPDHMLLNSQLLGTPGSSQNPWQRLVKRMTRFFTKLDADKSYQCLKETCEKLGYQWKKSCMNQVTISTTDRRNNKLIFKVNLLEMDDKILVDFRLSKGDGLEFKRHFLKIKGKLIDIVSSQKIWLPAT
Listing of entries alongside the reported pIC50.
For clarity, pIC50 is expressed as the negative log10 of concentration in mol/L.

N#Cc1ccc(Nc2ncc(C(F)(F)F)c(N[C@H]3CCNC3)n2)cn1 | 6.67

Next molecule, please.
q: Hello, please tell me recorded pIC50 for this one: CC(C)(N)CCNc1nc(Nc2ccc(C#N)nc2)ncc1C(F)(F)F
a: 7.79

====

TARGET_SYSTEM: hERG (KCNH2) (Homo sapiens)
Sequence (Q12809 whole entry): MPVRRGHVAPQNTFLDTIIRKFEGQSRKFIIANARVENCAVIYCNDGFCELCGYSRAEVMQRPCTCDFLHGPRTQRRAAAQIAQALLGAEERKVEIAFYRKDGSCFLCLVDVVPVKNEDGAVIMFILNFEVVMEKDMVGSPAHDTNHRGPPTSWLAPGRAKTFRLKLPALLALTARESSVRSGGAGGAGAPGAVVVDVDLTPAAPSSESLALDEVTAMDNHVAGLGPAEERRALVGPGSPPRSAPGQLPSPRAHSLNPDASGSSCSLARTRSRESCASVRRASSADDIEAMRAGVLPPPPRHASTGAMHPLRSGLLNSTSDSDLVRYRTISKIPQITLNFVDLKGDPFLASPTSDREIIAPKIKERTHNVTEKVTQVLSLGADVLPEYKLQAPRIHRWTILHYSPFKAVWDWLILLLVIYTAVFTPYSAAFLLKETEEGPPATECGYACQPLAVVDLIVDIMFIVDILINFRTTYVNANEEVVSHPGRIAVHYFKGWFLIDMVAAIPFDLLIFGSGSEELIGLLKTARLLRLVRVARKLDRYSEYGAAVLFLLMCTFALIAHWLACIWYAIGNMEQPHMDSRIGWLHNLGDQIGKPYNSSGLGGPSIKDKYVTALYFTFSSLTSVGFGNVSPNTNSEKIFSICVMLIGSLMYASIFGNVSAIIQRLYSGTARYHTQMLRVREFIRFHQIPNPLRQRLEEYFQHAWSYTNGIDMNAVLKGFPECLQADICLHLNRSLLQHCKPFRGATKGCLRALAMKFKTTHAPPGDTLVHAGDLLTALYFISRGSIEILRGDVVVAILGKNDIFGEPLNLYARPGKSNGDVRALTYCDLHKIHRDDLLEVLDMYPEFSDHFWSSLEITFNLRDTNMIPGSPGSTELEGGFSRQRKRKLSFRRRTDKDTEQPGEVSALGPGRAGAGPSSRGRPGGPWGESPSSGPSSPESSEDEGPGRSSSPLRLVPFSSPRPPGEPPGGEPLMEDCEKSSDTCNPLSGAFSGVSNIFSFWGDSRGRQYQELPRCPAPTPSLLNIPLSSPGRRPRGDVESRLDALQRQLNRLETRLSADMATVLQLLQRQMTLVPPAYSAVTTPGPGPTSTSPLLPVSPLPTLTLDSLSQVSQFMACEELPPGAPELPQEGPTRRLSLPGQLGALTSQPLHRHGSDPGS
METHOD_DESCRIPTION: Inhibition of human ERG expressed in HEK293 cells at 10 uM by patch-clamp technique relative to control
Format: cell-based
EXPERIMENTAL_PARAMETERS: HEK293 cells that express hERG
Listing: inhibition at 10 µM of selected molecules
// note: answer is a bare numeric in %

Past entries and their recorded results:
CNc1nc(Nc2cnc(C#N)c(NCCN)c2)ncc1C(F)(F)F | 9
CNc1nc(Nc2cnc(C#N)c(NC[C@@H]3CCNC3)c2)ncc1C(F)(F)F | 2.4
CNc1nc(Nc2cnc(C#N)c(O[C@@H]3CCCNC3)c2)ncc1C(F)(F)F | 91.6
CC(C)(N)CCNc1nc(Nc2ccc(C#N)nc2)ncc1C(F)(F)F | 35.5
CNCCNc1cc(Nc2ncc(C(F)(F)F)c(NC)n2)cnc1C#N | 46.4

q: Please report the measured inhibition at 10 µM for CNc1nc(Nc2cnc(C#N)c(N[C@H]3CC[C@H](N)CC3)c2)ncc1C(F)(F)F
a: 5.3

q: Indicate the recorded inhibition at 10 µM value for this molecule: CC(N)CCNc1nc(Nc2ccc(C#N)nc2)ncc1C(F)(F)F (racemic)
a: 31.6

q: Please report inhibition at 10 µM for the following molecule: CNc1nc(Nc2cnc(C#N)c(N[C@@H]3CCNC3)c2)ncc1C(F)(F)F
a: 17.9

====

TARGET_SYSTEM: Serine/threonine-protein kinase Chk1 (Homo sapiens)
METHOD_DESCRIPTION: Inhibition of CHK1 (unknown origin) incubated for 1 hr in presence of ATP by HTRF assay
pIC50: −log10 of the molar value.
Rule: pIC50 under 7 gives class 0, otherwise class 1.

N#Cc1ccc(Nc2ncc(C(F)(F)F)c(NCCCNC3CCCC3)n2)cn1 | class 0

q: State whether the measured pIC50 reaches 7, counting equality as reaching it, for CC(N)CCNc1nc(Nc2ccc(C#N)nc2)ncc1C(F)(F)F (racemic)
a: class 1

q: Item N#Cc1ccc(Nc2ncc(C(F)(F)F)c(NC[C@@H]3CCCNC3)n2)cn1 with pIC50 of 7 or above?
a: class 1

q: Is the recorded value of pIC50 equal to or greater than 7 for this molecule? CNc1nc(Nc2cnc(C#N)c(N[C@H]3CCCNC3)c2)ncc1C(F)(F)F
a: class 0

q: Item N#Cc1ccc(Nc2ncc(C(F)(F)F)c(NCCCNC3CC3)n2)cn1 with pIC50 of 7 or above?
a: class 0

====

TARGET_SYSTEM: Serine/threonine-protein kinase Chk1 (Homo sapiens, UniProt O14757)
Please assign F whenever IC50 is at or above 40 nM, and T whenever it is below.

The examples below pair each entry with its known result.
CNc1nc(Nc2cnc(C#N)c(N[C@H]3CCNC3)c2)ncc1C(F)(F)F | F
CN(C)CCCNc1nc(Nc2ccc(C#N)nc2)ncc1C(F)(F)F | F
CNc1nc(Nc2cnc(C#N)c(NC3CN4CCC3CC4)c2)ncc1C(F)(F)F (stereo not drawn) | F
CNc1nc(Nc2cnc(C#N)c(O[C@@H]3CCCNC3)c2)ncc1C(F)(F)F | T

q: I wonder whether N#Cc1ncc(Nc2ncc(C(F)(F)F)cn2)cc1O[C@@H]1CCCNC1 has IC50 below 40 nM. Can you tell?
a: F

q: Could you please tell me whether IC50 recorded for COCCNCCCNc1nc(Nc2ccc(C#N)nc2)ncc1C(F)(F)F is less than 40 nM?
a: F

q: Consider N#Cc1ccc(Nc2ncc(C(F)(F)F)c(NC[C@H]3CNCCO3)n2)cn1 . Does its IC50 lie strictly below 40 nM?
a: T

q: Consider the compound N#Cc1ccc(Nc2ncc(C(F)(F)F)c(N[C@H]3CC[C@H](N)CC3)n2)cn1 . Is its IC50 strictly less than 40 nM?
a: T
